// data source = patent US20110158985A1

target: T1, recombinant C-terminally truncated RSV (A2 strain) F protein (RSV (A2 strain), UniProt P03420 26-524); experiment: SPR (BIAcore), Fab over immobilised F
T1 construct: extracellular domain; also called truncated F protein; extracellular domain of the F protein from RSV A2
T1 sequence (P03420 26-109, chain 1 of 2): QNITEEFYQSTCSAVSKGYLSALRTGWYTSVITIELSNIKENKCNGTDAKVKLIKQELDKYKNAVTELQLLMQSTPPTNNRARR
T1 sequence (P03420 137-524, chain 2 of 2): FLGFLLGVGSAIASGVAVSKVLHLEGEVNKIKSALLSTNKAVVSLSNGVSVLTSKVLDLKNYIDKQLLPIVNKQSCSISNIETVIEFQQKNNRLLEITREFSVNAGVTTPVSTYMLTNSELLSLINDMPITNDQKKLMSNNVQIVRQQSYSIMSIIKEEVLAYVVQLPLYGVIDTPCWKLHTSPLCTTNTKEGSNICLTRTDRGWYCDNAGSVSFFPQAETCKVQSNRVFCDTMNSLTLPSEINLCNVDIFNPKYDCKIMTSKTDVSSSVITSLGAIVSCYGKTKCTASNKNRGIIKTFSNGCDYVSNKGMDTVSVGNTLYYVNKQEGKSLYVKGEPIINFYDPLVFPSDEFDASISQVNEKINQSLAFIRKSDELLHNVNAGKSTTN
Metric: Kd (nM)
Entry rule: numbers only, all in nM.

(Q) Given the entry S52F Fab (Fab, name in Kabat numbering, V domains shown) VH: QVTLRESGPALVKPTQTLTLTCTFSGFSLSTSGMSVGWIRQPPGKALEWLADIWWDDKKDYNPSLKSRLTISKDTSKNQVVLKVTNMDPADTATYYCARSMITNWYFDVWGQGTTVTVSS VL: DIQMTQSPSTLSASVGDRVTITCSASSSVGYMHWYQQKPGKAPKLLIYDTFKLASGVPSRFSGSGSGTEFTLTISSLQPDDFATYYCFQGSGYPFTFGGGTKVEIK , report its measured Kd.
(A) 0.85
